Origin of measurements: BigSolDB 2.1

# condition details: in diisobutyl methanol, 334.15 K

structure as smiles: CCc1ccc2c(c1)C(=O)c1ccccc1C2=O
solubility (mole fraction): 0.139

---

# condition details: in 2-phenylethanol, 304.15 K
endpoint name: solubility (mole fraction)

structure as smiles: CCc1ccc2c(c1)C(=O)c1ccccc1C2=O
reported measurement: 0.107

---

# condition details: in 2-phenylethanol, 339.15 K
endpoint name: solubility (mole fraction)

structure as smiles: CCc1ccc2c(c1)C(=O)c1ccccc1C2=O
reported measurement: 0.334

---

# condition details: in acetophenone, 319.15 K

structure as smiles: CCc1ccc2c(c1)C(=O)c1ccccc1C2=O
solubility (mole fraction): 0.21

---

# condition details: in dioctyl adipate, 314.15 K

structure as smiles: CCc1ccc2c(c1)C(=O)c1ccccc1C2=O
solubility (mole fraction): 0.0899

---

# condition details: in DMAc, 304.15 K
endpoint name: solubility (mole fraction)

structure as smiles: CCc1ccc2c(c1)C(=O)c1ccccc1C2=O
reported measurement: 0.0943

---

# condition details: in tetrabutyl urea, 334.15 K

structure as smiles: CCc1ccc2c(c1)C(=O)c1ccccc1C2=O
solubility (mole fraction): 0.17

---

# condition details: in styrene, 344.15 K

structure as smiles: CCc1ccc2c(c1)C(=O)c1ccccc1C2=O
solubility (mole fraction): 0.335

---

# condition details: in DMF, 334.15 K
endpoint name: solubility (mole fraction)

structure as smiles: CCc1ccc2c(c1)C(=O)c1ccccc1C2=O
reported measurement: 0.283

---

# condition details: in acetophenone, 304.15 K

structure as smiles: CCc1ccc2c(c1)C(=O)c1ccccc1C2=O
solubility (mole fraction): 0.138

---

# condition details: in DMF, 319.15 K

structure as smiles: CCc1ccc2c(c1)C(=O)c1ccccc1C2=O
solubility (mole fraction): 0.176

---

# condition details: in mesitylene, 309.15 K

structure as smiles: CCc1ccc2c(c1)C(=O)c1ccccc1C2=O
solubility (mole fraction): 0.159

---

# condition details: in acetophenone, 334.15 K
endpoint name: solubility (mole fraction)

structure as smiles: CCc1ccc2c(c1)C(=O)c1ccccc1C2=O
reported measurement: 0.315

---

# condition details: in 2-phenylethanol, 329.15 K

structure as smiles: CCc1ccc2c(c1)C(=O)c1ccccc1C2=O
solubility (mole fraction): 0.248

---

# condition details: in trioctyl phosphate, 329.15 K

structure as smiles: CCc1ccc2c(c1)C(=O)c1ccccc1C2=O
solubility (mole fraction): 0.135

---

# condition details: in diglyme, 344.15 K

structure as smiles: CCc1ccc2c(c1)C(=O)c1ccccc1C2=O
solubility (mole fraction): 0.444

---

# condition details: in DMAc, 314.15 K

structure as smiles: CCc1ccc2c(c1)C(=O)c1ccccc1C2=O
solubility (mole fraction): 0.131

---

# condition details: in 2-methyl-cyclohexyl acetate, 344.15 K
endpoint name: solubility (mole fraction)

structure as smiles: CCc1ccc2c(c1)C(=O)c1ccccc1C2=O
endpoint name: solubility (mole fraction)
reported measurement: 0.268

---

# condition details: in dioctyl adipate, 344.15 K
endpoint name: solubility (mole fraction)

structure as smiles: CCc1ccc2c(c1)C(=O)c1ccccc1C2=O
reported measurement: 0.242

---

# condition details: in dioctyl adipate, 324.15 K

structure as smiles: CCc1ccc2c(c1)C(=O)c1ccccc1C2=O
solubility (mole fraction): 0.129

---

# condition details: in 2-phenylethanol, 334.15 K

structure as smiles: CCc1ccc2c(c1)C(=O)c1ccccc1C2=O
solubility (mole fraction): 0.288

---

# condition details: in styrene, 324.15 K
endpoint name: solubility (mole fraction)

structure as smiles: CCc1ccc2c(c1)C(=O)c1ccccc1C2=O
reported measurement: 0.182

---

# condition details: in trioctyl phosphate, 344.15 K

structure as smiles: CCc1ccc2c(c1)C(=O)c1ccccc1C2=O
solubility (mole fraction): 0.22

---

# condition details: in styrene, 319.15 K
endpoint name: solubility (mole fraction)

structure as smiles: CCc1ccc2c(c1)C(=O)c1ccccc1C2=O
endpoint name: solubility (mole fraction)
reported measurement: 0.153

---

# condition details: in trioctyl phosphate, 314.15 K
endpoint name: solubility (mole fraction)

structure as smiles: CCc1ccc2c(c1)C(=O)c1ccccc1C2=O
reported measurement: 0.0792

---

# condition details: in 2-methyl-cyclohexyl acetate, 314.15 K
endpoint name: solubility (mole fraction)

structure as smiles: CCc1ccc2c(c1)C(=O)c1ccccc1C2=O
reported measurement: 0.104

---

# condition details: in tetrabutyl urea, 309.15 K

structure as smiles: CCc1ccc2c(c1)C(=O)c1ccccc1C2=O
solubility (mole fraction): 0.0644

---

# condition details: in trioctyl phosphate, 324.15 K

structure as smiles: CCc1ccc2c(c1)C(=O)c1ccccc1C2=O
solubility (mole fraction): 0.114

---

# condition details: in acetophenone, 329.15 K

structure as smiles: CCc1ccc2c(c1)C(=O)c1ccccc1C2=O
solubility (mole fraction): 0.274

---

# condition details: in 2-methyl-cyclohexyl acetate, 324.15 K
endpoint name: solubility (mole fraction)

structure as smiles: CCc1ccc2c(c1)C(=O)c1ccccc1C2=O
reported measurement: 0.145

---

# condition details: in DMF, 309.15 K
endpoint name: solubility (mole fraction)

structure as smiles: CCc1ccc2c(c1)C(=O)c1ccccc1C2=O
endpoint name: solubility (mole fraction)
reported measurement: 0.126

---

# condition details: in diglyme, 304.15 K

structure as smiles: CCc1ccc2c(c1)C(=O)c1ccccc1C2=O
solubility (mole fraction): 0.165

---

# condition details: in mesitylene, 324.15 K
endpoint name: solubility (mole fraction)

structure as smiles: CCc1ccc2c(c1)C(=O)c1ccccc1C2=O
endpoint name: solubility (mole fraction)
reported measurement: 0.234

---

# condition details: in acetophenone, 324.15 K

structure as smiles: CCc1ccc2c(c1)C(=O)c1ccccc1C2=O
solubility (mole fraction): 0.238

---

# condition details: in 2-phenylethanol, 309.15 K
endpoint name: solubility (mole fraction)

structure as smiles: CCc1ccc2c(c1)C(=O)c1ccccc1C2=O
endpoint name: solubility (mole fraction)
reported measurement: 0.127

---

# condition details: in mesitylene, 314.15 K
endpoint name: solubility (mole fraction)

structure as smiles: CCc1ccc2c(c1)C(=O)c1ccccc1C2=O
endpoint name: solubility (mole fraction)
reported measurement: 0.184

---

# condition details: in acetophenone, 344.15 K

structure as smiles: CCc1ccc2c(c1)C(=O)c1ccccc1C2=O
solubility (mole fraction): 0.397

---

# condition details: in acetophenone, 314.15 K

structure as smiles: CCc1ccc2c(c1)C(=O)c1ccccc1C2=O
solubility (mole fraction): 0.185

---

# condition details: in tetrabutyl urea, 314.15 K
endpoint name: solubility (mole fraction)

structure as smiles: CCc1ccc2c(c1)C(=O)c1ccccc1C2=O
endpoint name: solubility (mole fraction)
reported measurement: 0.0785

---

# condition details: in tetrabutyl urea, 339.15 K

structure as smiles: CCc1ccc2c(c1)C(=O)c1ccccc1C2=O
solubility (mole fraction): 0.197

---

# condition details: in diisobutyl methanol, 314.15 K
endpoint name: solubility (mole fraction)

structure as smiles: CCc1ccc2c(c1)C(=O)c1ccccc1C2=O
reported measurement: 0.0651

---

# condition details: in 2-methyl-cyclohexyl acetate, 319.15 K

structure as smiles: CCc1ccc2c(c1)C(=O)c1ccccc1C2=O
solubility (mole fraction): 0.127

---

# condition details: in DMF, 344.15 K

structure as smiles: CCc1ccc2c(c1)C(=O)c1ccccc1C2=O
solubility (mole fraction): 0.388

---

# condition details: in tetrabutyl urea, 304.15 K
endpoint name: solubility (mole fraction)

structure as smiles: CCc1ccc2c(c1)C(=O)c1ccccc1C2=O
endpoint name: solubility (mole fraction)
reported measurement: 0.0531

---

# condition details: in DMF, 329.15 K
endpoint name: solubility (mole fraction)

structure as smiles: CCc1ccc2c(c1)C(=O)c1ccccc1C2=O
reported measurement: 0.245

---

# condition details: in tetrabutyl urea, 329.15 K

structure as smiles: CCc1ccc2c(c1)C(=O)c1ccccc1C2=O
solubility (mole fraction): 0.139

---

# condition details: in styrene, 309.15 K

structure as smiles: CCc1ccc2c(c1)C(=O)c1ccccc1C2=O
solubility (mole fraction): 0.112

---

# condition details: in mesitylene, 334.15 K
endpoint name: solubility (mole fraction)

structure as smiles: CCc1ccc2c(c1)C(=O)c1ccccc1C2=O
endpoint name: solubility (mole fraction)
reported measurement: 0.296

---

# condition details: in diisobutyl methanol, 339.15 K

structure as smiles: CCc1ccc2c(c1)C(=O)c1ccccc1C2=O
solubility (mole fraction): 0.163

---

# condition details: in acetophenone, 309.15 K

structure as smiles: CCc1ccc2c(c1)C(=O)c1ccccc1C2=O
solubility (mole fraction): 0.163

---

# condition details: in 2-methyl-cyclohexyl acetate, 329.15 K

structure as smiles: CCc1ccc2c(c1)C(=O)c1ccccc1C2=O
solubility (mole fraction): 0.171

---

# condition details: in trioctyl phosphate, 304.15 K
endpoint name: solubility (mole fraction)

structure as smiles: CCc1ccc2c(c1)C(=O)c1ccccc1C2=O
endpoint name: solubility (mole fraction)
reported measurement: 0.0569
